Sourced from patent US20240150321A1

This document collects IC50 values reported for Avi-tagged FL MALT-1 (Homo sapiens (Human)).

## Task Tell me IC50 reported for CCc1ccc2cnn(C)c2c1NS(=O)(=O)c1cnn(-c2cncc(C(F)(F)F)c2)c1 [Compound I-3]
## Result ≤ 400 nM

## Task Tell me IC50 reported for CCC(O)c1ccnc(-n2cc(S(=O)(=O)Nc3c(OC)ccc4cnn(C)c34)cn2)c1 (single isomer, unassigned) [Compound I-280]
## Result 400 to 1000 nM

## Task Tell me IC50 reported for Cn1ncc2cccc(NS(=O)(=O)c3cnn(-c4cc(N5CC6CC6C5)ccn4)c3)c21 (stereo not shown) [Compound I-375]
## Result > 2500 nM

## Task Tell me IC50 reported for Cn1ncc2cccc(NS(=O)(=O)c3cnn(-c4cc(C5(F)CC(F)(F)C5)ccn4)c3)c21 [Compound I-383]
## Result > 2500 nM

## Task Tell me IC50 reported for COCC(O)(COC)c1ccnc(-n2cc(S(=O)(=O)Nc3cccc4cnn(C)c34)cn2)c1 [Compound I-257]
## Result > 2500 nM

## Task Tell me IC50 reported for Cn1ncc2cccc(NS(=O)(=O)c3cnn(-c4cc(N5CCOCC5)ccn4)c3)c21 [Compound I-103]
## Result > 2500 nM

## Task Tell me IC50 reported for C[C@@H]1COC(=O)N1c1ccnc(-n2cc(S(=O)(=O)Nc3cccc4cnn(C)c34)cn2)c1 [Compound I-302]
## Result > 2500 nM

###

- targetSystem: UniProt:Q9UDY8
- assayText: MALT-1 Fluorogenic Peptide Cleavage Assay (MALT1 inhibition assay)
- Format: biochemical
- runConditions: Ac-LRSR-AMC peptide substrate, 30 min pre-incubation, 90 min reaction at room temperature
recordedEndpoint: IC50

## Task Tell me IC50 reported for Cn1ncc2cccc(NS(=O)(=O)c3cnn(-c4ccccn4)c3)c21 [Compound I-145]
## Result > 2500 nM

## Task Tell me IC50 reported for COC1(c2ccnc(-n3cc(S(=O)(=O)Nc4cccc5cnn(C)c45)cn3)c2)CC2(CC2)C1 [Compound I-484]
## Result > 2500 nM

## Task Tell me IC50 reported for COC1(c2ccnc(-n3cc(S(=O)(=O)Nc4cccc5cnn(C)c45)cn3)c2)CC(F)(F)C1 [Compound I-138]
## Result > 2500 nM

## Task Tell me IC50 reported for Cn1ncc2cccc(NS(=O)(=O)c3cnn(-c4cc(Cl)ccn4)c3)c21 [Compound I-86]
## Result > 2500 nM

## Task Tell me IC50 reported for CCc1ccc2cnn(C)c2c1NS(=O)(=O)c1cnn(-c2cc(Cl)ccn2)c1 [Compound I-36]
## Result ≤ 400 nM

## Task Tell me IC50 reported for Cc1cnc(-n2cc(S(=O)(=O)Nc3cccc4cnn(C)c34)cn2)cc1C(F)(F)F [Compound I-117]
## Result 1000 to 2500 nM

## Task Tell me IC50 reported for Cn1ncc2ccc(OC(F)(F)F)c(NS(=O)(=O)c3cnn(-c4cc(C(F)(F)F)ccn4)c3)c21 [Compound I-327]
## Result ≤ 400 nM

## Task Tell me IC50 reported for COc1ccc2cnn(C)c2c1NS(=O)(=O)c1cnn(-c2cc(C3(F)CC(F)C3)ccn2)c1 (single isomer, unassigned) [Compound I-378]
## Result ≤ 400 nM

## Task Tell me IC50 reported for Cn1ncc2cccc(NS(=O)(=O)c3cnn(-c4cc(C5(O)CC(F)C5)ccn4)c3)c21 (centres unmarked) [Compound I-358]
## Result > 2500 nM

## Task Tell me IC50 reported for CC[C@@H](OC)c1ccnc(-n2cc(S(=O)(=O)Nc3cccc4cnn(C)c34)cn2)c1 [Compound I-298]
## Result > 2500 nM

## Task Tell me IC50 reported for Cn1ncc2cccc(NS(=O)(=O)c3cnn(-c4cc(N5CCCC5)ccn4)c3)c21 [Compound I-249]
## Result > 2500 nM

## Task Tell me IC50 reported for Cn1ncc2cccc(NS(=O)(=O)c3cnn(-c4cc(N5CC(C)(C)C5)ccn4)c3)c21 [Compound I-367]
## Result > 2500 nM

## Task Tell me IC50 reported for Cn1ncc2cccc(NS(=O)(=O)c3cnn(-c4cc([C@]5(O)C[C@@H](C)C5)ccn4)c3)c21 [Compound I-271]
## Result > 2500 nM

## Task Tell me IC50 reported for CCc1ccc2cnn(C)c2c1NS(=O)(=O)c1cn(-c2ccnc(C(F)(F)F)c2)nc1C [Compound I-29]
## Result ≤ 400 nM

## Task Tell me IC50 reported for CC[C@@](C)(OC)c1ccnc(-n2cc(S(=O)(=O)Nc3cccc4cnn(C)c34)cn2)c1 (stereo in doubt) [Compound I-314]
## Result > 2500 nM

## Task Tell me IC50 reported for COc1ncc2cnn(C)c2c1NS(=O)(=O)c1cnn(-c2cc(C(F)(F)F)n(C)n2)c1 [Compound I-286]
## Result ≤ 400 nM

## Task Tell me IC50 reported for CCc1ccc2cnn(C)c2c1NS(=O)(=O)c1cnn(-c2ccnc(C(F)(F)F)c2)c1C [Compound I-30]
## Result 400 to 1000 nM
